Reference source for all entries: the supplement of paper PMC9170038

System: MS2 coat protein
Experiment: apparent KD of MS2 coat protein; designed switch direction (-1 OFF switch, 1 ON switch): -1; higher = weaker reporter binding
Conditions: Eterna round: R95; input ligand: FMN 200 uM

sequence.code	apparent KD of MS2 coat protein
GUGAAGUGAGGAUAUAUGAGAGAGGCUGAACCGGACGAGAAGUAGAAGGCACAUGAGGAUCACCCAUGUAAGGG [JR_Exclu4_Sub024] (puzzle: Exclusion 4)	293 nM
CAUGCUUCGGCAUGUACAAGCUUUUUGCUCGUCUUAUUAACAUGAGGAUCACCCAUGUCAAAGAGACCUCAUGUAUU [Sensor v3 - turn-off variant 2 - 3] (puzzle: Sensor v3, turn-off variant 2)	356 nM
CCAUCGAGUGUGAGGAUAUGCUGGUCCAUAGAUCAGCAGAAGGCACAUGAGGAUCACCCAUGUGGAGACGGUGG [Mat - Exclusion 4 - JL Mod - D78] (puzzle: Brourd's mod of Exclusion 4)	418 nM

###

System: MS2 coat protein
Assay: apparent KD of MS2 coat protein, switch ON state; designed switch direction (-1 OFF switch, 1 ON switch): 1; higher = weaker reporter binding
Conditions: FMN input: 0 or 200 uM; Eterna round: R93 (includes R88 designs)
quantity: apparent KD of MS2 coat protein

> print(dat)
                              sequence.code  result.value
1  AAAGACACGGUGCAGGAUAUAUUAAUAGUCACAUGAGGAUCACCCAUGUUCAUUUAUAUGAACGAGUAGAAGGGCGGUGAAAAAA [SameState2 Malc#8]        174 nM
2  AGGAGACAUGAGGAUCACCCAUGUGCACGUGGAGGAGGAUAUGCUAGUAGAAGAUAGAAUGCAGAAGGCCUAAGAA [JR_SameState1_Sub3]       42.8 nM
3  ACAAAUAAAAGAGAGGAUAUCCAAAAGAAAACAUGAGGAUCACCCAUGUGAAAGAAAAUAAAAUGGGAGAAGGCUCAGAAUAAUA [Topaz 30]       16.4 nM

###

Tested on: MS2 coat protein
Assay: apparent KD of MS2 coat protein; higher = weaker reporter binding
Settings: Eterna round: R107; input ligand: theophylline 2 mM
// label = Satisfied if apparent KD of MS2 coat protein is not less than 30 nM, otherwise Not satisfied

sequence.code	system.under.test	class.name
GGAUAGGACACGGCCGCCACUACCUAGGAUACUAGCAACAUUUGGGUACAUGAGGAUCACCCAUGUAGGACCGGGUGUCCUAUCG	MS2 coat protein	Not satisfied
UGGAGUAUCAGACAUGAGGAUCACCCAUGUCGAGGACCGGUACGGCCGCCACUCGGCAGUUUGCGUCCUCAGGUACUCCGGGUAA [Edlatearis]	MS2 coat protein	Not satisfied
AACGGUCGUACCGGAAUGAUCCUCAUGUAACGAGGACCGGUACGGCCGCCACUCGAUAACAUGAGGAUCACCCAUGUAAUAAUAA [|T'-M'-Trp-Ms2|_Design11]	MS2 coat protein	Not satisfied
ACGGAUCGGAAACGAUCCGCGGCUAGGGUGCGAGGACCGGUACGGCCGCCACUCGGGUAACAUGAGGAUCACCCAUGUCUGAUUU [ETA NP+V+V2 #14]	MS2 coat protein	Satisfied
UGUAUGUGAUUUGAUACCAGACCAGCUGGUGUUAGAUGAGGAUCACCCAUCUAGGUUUGGGUCCCUUGGCAGCAAAUCGCAUACU [SS Theo B #24 Ms13]	MS2 coat protein	Not satisfied
UGGUACUAGGCGGCCGCCACUGGGAGAUACAUGAGGAUCACCCAUGUUUAAUGCCGAGAGGCAACUAGGACCGGGCCUAGUACAU	MS2 coat protein	Satisfied
CGGGUUCGGGCGGCCGCCACUUUGAUUGGGUGUGACAUGAGGAUCACCCAUGUUGUGGGUGAUCGGAGGACCGGGUUUGGGCUUG [Fidorka]	MS2 coat protein	Satisfied
UCGGGCAGAGCGGCCGCCACUGUAAGGCGUGCGGAUGACGGAACAUGAGGAUCACCCAUGUUGUUUAGGACCGGGCUUGCGGCGA [nynullin]	MS2 coat protein	Not satisfied
ACAUUGCGCUCGGCCGCCACUGGCUAUAGAUUUAUAGCAUUAAUGAACAUGAGGAUCACCCAUGUCAGGACCGGGAGCGAACCAU [SSTryp B #8]	MS2 coat protein	Not satisfied
GUACGAGUUGAAUGUGAGACUGGCGUGGAAGGAGCGCACGGAGGUGCAGGUAGGUCGCCACAUGAGGAUCACCCAUGUCGGCUAG [XARG-A 23]	MS2 coat protein	Not satisfied
UUCAGCUAGUCGGCCGCCACUACACGAGGAUCACCCGUGUUCCUAAAACACUGCUUCGGCAGUGGUAGGACCGGGACUAGCUGAG	MS2 coat protein	Satisfied
UAAUGUGAGAGAAGGAGCGGAGGUCUCGUUACAACAUGAGGAUCACCCAUGUAACGUACCGUCCAGGUAGGUCGCUCUCGGGCGC [lvacmullin]	MS2 coat protein	Not satisfied
UGUCCGUGAUCGGCCGCCACUCAACAAACCUGUGGAAACUGACAUGAGGAUCACCCAUGUUCUUGGAGGACCGGGAUUGCUUCGA [theeternabot_sameState_MS2_Trp_B_4]	MS2 coat protein	Not satisfied
UUAAUCAUAUAUGAAAACAUAUAUGCAGAAGGAGCGUGAUAAAACACAGGUAGGUCGCUGAAGGGAACAUGAGGAUCACCCAUGU [AstrosSSArgA#2]	MS2 coat protein	Satisfied
GCAUCCUAGUCGGCCGCCACUGCAAUUGUAAUACUGCUACAUGAGGAUCACCCAUGUCCAUGUAGCAGGACCGGGACUAGGAUGC [SS Tryp B #16]	MS2 coat protein	Satisfied
AACAUGAGGGCGGCCGCCACUCCAUGAACAUGAGGAUCACCCAUGUUGAGGAUCACCCAUGUUGUGAGGACCGGGCCACAUGAGG [Exclusion Tryptophan B 3]	MS2 coat protein	Satisfied
UUACAUGAGGAUCACCCAUGUCAUACAGAAGGAGCGUCACAUAAGACAGGUAGGUCGCUGUUAUUUUUUACUAUUAUAUCCUCUA [JR_Nu_ExcArginiA_Sub030]	MS2 coat protein	Satisfied
ACAUUUAACUGAAGGAGCGUGAUUAACAUGAGGAUCACCCAUGUAACUUAGAUGCUUAUAUCACAGGUAGGUCGCAGACUAAUGA [JR_ExcArginiB_Sub011]	MS2 coat protein	Not satisfied
UAAUGCAGGUCGGCCGCCACUACAACAUGAGGAUCACCCAUGUACAUGUUGUAGUACGGUAUGAGUAGGACCGGGACCUGCAUAA [Trp-Ms2-M'-T'-(MT)'_Design1]	MS2 coat protein	Satisfied
CCUCGGGACCGAAGGAGCGAGAUAACAACAUUGGGUCUCAACACAUGAGGAUCACCCAUGUCUCAGGUAGGUCGCGGUACCAUGG [Exclusion Arginine B GF22]	MS2 coat protein	Satisfied
UGGAGUAGGGUAAAUAGGAUAAGUACAGAAGGAGCGCGAAUAAACGCAGGUAGGUCGCUGGAACACAUGAGGAUCACCCAUGUUG [Same State Arginine A GF 24]	MS2 coat protein	Not satisfied
AGAUGUAGCGGAAGGAGCGACUUGAGGAUCACCCAAGUCUCCCGUUGUGGGAGUUCCUUAGGUCAGGUAGGUCGCCGUUACGUCA [Omei Arg B SS B v3]	MS2 coat protein	Satisfied

###

Tested on: MS2 coat protein
Experiment: apparent KD of MS2 coat protein; designed switch direction (-1 OFF switch, 1 ON switch): 1; higher = weaker reporter binding
Settings: input ligand: FMN 200 uM
Entries are sorted into classes by apparent KD of MS2 coat protein as follows: low group = under 0.03 µM, middle group = from 0.03 µM up to 0.09 µM, high group = 0.09 µM and over

sequence.code	class.name
GAGGGACAGACCAACAUGAGGAUCACCCAUGUCCUCGCAGGUCAGGAUAUCCCGCCAACAGGCGAGGAGAAGGGACGGUGAACC (Eterna round: R96, puzzle: Same State NG 3)	high group
CCGGUUAAUGGAGGAUAUGGAGCCUUAUUGGCUCCAGAAGGCUAACAUGAGGAUCACCCAUGUUUACCGGCGGUCAAUAGACCG [Eli NG1ss - 62] (Eterna round: R96, puzzle: Same State NG 1)	low group
GUGGUGAAUUAAGGAUAUCGAGUCUAGAUGUUAAACAUGAGGAUCACCCAUGUGGGUUGCGGUAUCGAGAAGGUAAUUUACGGG [salish99_SSNG2_r04_507] (Eterna round: R96, puzzle: Same State NG 2)	low group
GUGCUCGUGUGAGGAUAUGCUUCCGUUUCGGCUGCAGAAGGUACUAUUAUACAUGAGGAUCACCCAUGUCUCUUUUCUCCGGUG [salish99_SSNG1_r04_913] (Eterna round: R96, puzzle: Same State NG 1)	middle group
UUAAUAAUGUAAGGAUAUACAUGAGGAUUUCUCGUAGAAGGUACAGGACAUGAGGAUCACCCAUGUAUCGCUCCGUAGAGCGUA [Mat - Same State NG 1 - JL mod - D23] (Eterna round: R96, puzzle: Same State NG 1)	high group
UUGAAUAAUUAAGGAUAUCGAGUCAAGAUGUUAAACAUGAGGAUCACCCAUGUGGGUUGCGGUAUCGAGAAGGUAAAUAAUAAG [Mat - Same State NG 2 - JL mod - D56] (Eterna round: R96, puzzle: Same State NG 2)	middle group
AUAACACCGGCAGGAUAUGGGAAAGGAAGUGUACCAGAAGGGCCGGAACGGCGAUGGACAUGAGGAUCACCCAUGUCUUAGCCU [PowerStrip SSNG 1.24] (Eterna round: R96, puzzle: Same State NG 1)	low group
